The measurements presented in this section are drawn from patent US20210395651A1.

TARGET_OR_TEST_SYSTEM: Lipolase® 100L (Thermomyces lanuginosus, UniProt O59952)
Construct: purchased Sigma-Aldrich
Sequence (O59952 23-291): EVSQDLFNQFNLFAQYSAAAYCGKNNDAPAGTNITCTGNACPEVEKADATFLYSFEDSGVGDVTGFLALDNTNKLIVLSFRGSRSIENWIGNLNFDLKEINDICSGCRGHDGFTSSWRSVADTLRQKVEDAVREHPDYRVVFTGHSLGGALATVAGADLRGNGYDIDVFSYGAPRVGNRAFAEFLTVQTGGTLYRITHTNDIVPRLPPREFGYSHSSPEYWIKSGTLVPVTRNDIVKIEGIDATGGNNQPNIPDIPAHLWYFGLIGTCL
PROTOCOL_DETAILS: Lipase storage stability in liquid formulations at 37° C. (pNP-valerate activity)
Format: biochemical, Thermomyces lanuginosa
CONDITION_CONTEXT: base formulation II. (Lipolase 0.2 wt%, tested compound 2.5 wt%); 3 d storage at 37° C.
A collection of molecules and their measured lipase activity, 3 d
REPORTED_PROPERTY: lipase activity, 3 d (%)

- MOLECULE: "CCOC(=O)CC(CC(=O)OCC)(OC(C)=O)C(=O)OCC [A.5, Acetyltriethylcitrate]"
  TARGET_OR_TEST_SYSTEM: "Lipolase® 100L (Thermomyces lanuginosus, UniProt O59952)"
  OBSERVED_RESULT: 98
- MOLECULE: "CCOC(=O)CC(O)(CC(=O)OCC)C(=O)OCC [A.1, Triethylcitrate]"
  TARGET_OR_TEST_SYSTEM: "Lipolase® 100L (Thermomyces lanuginosus, UniProt O59952)"
  OBSERVED_RESULT: 101
- MOLECULE: "O=C([O-])CC(O)(CC(=O)[O-])C(=O)[O-].[Na+].[Na+].[Na+] [B.2, citric acid trisodiumsalt, reference compound]"
  TARGET_OR_TEST_SYSTEM: "Lipolase® 100L (Thermomyces lanuginosus, UniProt O59952)"
  OBSERVED_RESULT: 95
- MOLECULE: "O=C(CC(O)(CC(=O)OCc1ccccc1)C(=O)OCc1ccccc1)OCc1ccccc1 [A.8, Tribenzylcitrate]"
  TARGET_OR_TEST_SYSTEM: "Lipolase® 100L (Thermomyces lanuginosus, UniProt O59952)"
  OBSERVED_RESULT: 94
- MOLECULE: "CC(=O)OCC(COC(C)=O)OC(C)=O [B.4, glyceroltriacetate (triacetine), reference compound]"
  TARGET_OR_TEST_SYSTEM: "Lipolase® 100L (Thermomyces lanuginosus, UniProt O59952)"
  OBSERVED_RESULT: 87
- MOLECULE: "CCOC(=O)CC(O)(CC(=O)O)C(=O)O (stereo not drawn) [A.6, Monoethylcitrate]"
  TARGET_OR_TEST_SYSTEM: "Lipolase® 100L (Thermomyces lanuginosus, UniProt O59952)"
  OBSERVED_RESULT: 100
